Reference for the values: ChEMBL document CHEMBL1944523

Task for the reader: assign each of the following compounds its reported EC50.
- measured_on: Peroxisome proliferator-activated receptor gamma (Homo sapiens)
- Sequence (P37231 whole entry): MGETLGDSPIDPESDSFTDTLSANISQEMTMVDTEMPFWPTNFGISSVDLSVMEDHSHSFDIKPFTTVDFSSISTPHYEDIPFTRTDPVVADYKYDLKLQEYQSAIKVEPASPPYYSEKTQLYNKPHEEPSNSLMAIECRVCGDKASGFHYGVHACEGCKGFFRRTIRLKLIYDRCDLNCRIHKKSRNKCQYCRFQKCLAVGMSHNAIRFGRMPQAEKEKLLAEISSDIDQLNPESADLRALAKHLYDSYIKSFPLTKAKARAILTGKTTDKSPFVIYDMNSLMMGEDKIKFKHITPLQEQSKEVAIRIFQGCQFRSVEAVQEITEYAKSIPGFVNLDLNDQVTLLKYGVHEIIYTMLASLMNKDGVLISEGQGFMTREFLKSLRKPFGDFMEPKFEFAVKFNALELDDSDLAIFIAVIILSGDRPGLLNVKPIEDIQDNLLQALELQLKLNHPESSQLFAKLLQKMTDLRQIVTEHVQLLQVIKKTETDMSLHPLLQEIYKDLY
- assay_notes: Partial agonist activity at human PPARgamma LBD assessed as activation of PBP by HTRF assay
- Type: functional
One number for each entry, in nM.

Study these solved cases before continuing.
record_smiles	recorded_measurement
CN(CCOc1ccc(C[C@H](OCC(F)(F)F)C(=O)O)cc1)c1nc2ccccc2o1	1
COc1ccc2c(-n3c(=O)n(Cc4cc(O[C@H](C)C(=O)O)ccc4Cl)c4ccccc43)noc2c1	11
COc1ccc2c(-n3c(=O)n(Cc4ccc(Cl)c(O[C@H](C)C(=O)O)c4)c4ccccc43)noc2c1	3

Batch request: EC50 for each of the following compounds.
1. C[C@@H](Oc1cc(Cn2c(=O)n(-c3ccc(C(C)(C)C)cc3)c3ccc(C(F)(F)F)cc32)ccc1Cl)C(=O)O
2. COc1ccc2c(-n3c(=O)n(Cc4cc([C@@]5(C)OC(=O)NC5=O)ccc4Cl)c4ccccc43)noc2c1
3. Cc1c(C(=O)c2ccc(Cl)cc2)c2ccc(OC(F)(F)F)cc2n1Cc1cccc(O[C@H](C)C(=O)O)c1

output:
1: 440; 2: 1820; 3: 5

input: May I ask what EC50 has been recorded for Cc1c(C(=O)c2ccc(Cl)cc2)c2ccc(OC(F)(F)F)cc2n1Cc1cccc(O[C@@H](C(=O)O)C(C)C)c1 ?
output: 6
